- System: crabgrass
- EXPERIMENT: Test B pre/postemergence crabgrass
- Type: in vivo, Digitaria sanguinalis
- COND: Preemergence, Rate 62 g/ha; scale 0 to 10 (0 no effect, 10 complete control)
Classification field: enter YES for Plant response rating, Crabgrass values not below 7, NO for values below it.

MOLECULE: CC(C)N(C(=O)n1oc(=O)n(C2(C)CC2)c1=O)c1ccc(Cl)cc1 [Compound 361]
LABEL: NO
--
MOLECULE: CC(C)N(C(=O)n1oc(=O)n(N2CCOCC2)c1=O)c1ccc(F)cc1 [Compound 385]
LABEL: NO
--
MOLECULE: CC(C)N(C(=O)n1oc(=O)n(N2C(C)CCCC2C)c1=O)c1ccc(F)cc1F (centres unmarked) [Compound 383]
LABEL: NO
--
MOLECULE: CC1CC1n1c(=O)on(C(=O)N(c2ccc(F)cc2F)C(C)C)c1=O (centres unmarked) [Compound 372]
LABEL: YES
--
MOLECULE: CC(C)N(C(=O)n1oc(=O)n(C)c1=O)c1ccc(F)cc1F [Compound 368]
LABEL: YES
